B1: FLOT1 (parent)
chain: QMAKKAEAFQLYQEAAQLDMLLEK

Variants of: B1
Test: protein stability index of a GFP-peptide fusion (GPS, HEK-293T) (PSI 1-6); higher = more stable;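 note: lentivirally expressed fusions sorted by FACS into six bins by GFP to DsRed ratio, PSI derived from sequencing read proportions per bin multiplied by bin number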
Conditions: c terminus: a fixed tail appended
Reported protein stability index values are given for each entry in this list.

SEQUENCE_CHANGE | protein stability index
L18W | 2.03
F9D | 3.04
Q13Y | 1.96
L22N | 2.03
